tested on: SYO-1 complex spheroid growth, percent test/control; experiment: Anticancer human tumor SYO-1 cell line growth inhibition [Asc]; settings: second compound 0.0316 µM; first compound 0.00949 µM; active compounds read low;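 also: compound exposure lasted 7 days after spheroids grew 3 days; 100% = DMSO vehicle control viability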
property.name: viability, T/C (%)
Field: numeric (%). Do not append units.

Ask | Return viability, T/C (reported value) for this molecule: Cc1nc(N2CCC3(CC2)COC(C)C3N)c(CO)nc1Sc1ccnc(N)c1Cl (stereo not drawn) + Cc1c(S(C)(=O)=O)c(-c2cc(F)cc(N3CCN(c4ccc(NS(=O)(=O)c5ccc(NC(CCN6CCC(C(=O)OCCCP(=O)(O)O)CC6)CSc6ccccc6)c(S(=O)(=O)C(F)(F)F)c5)cc4)CC3)c2)c(-c2ccc(Cl)cc2)n1C(C)C
Reply | 93.6

Ask | Return viability, T/C (reported value) for this molecule: CCN1C(C(=O)NC23CCC(C(=O)O)(CC2)CC3)C(c2cccc(Cl)c2F)C2(C(=O)Nc3cc(Cl)ccc32)C12CCCCC2 (stereo not drawn) + CNC(C)C(=O)NC1CN(S(=O)(=O)c2cccc(S(=O)(=O)N3CCC4CCC(C(=O)NC(c5ccccc5)c5ccccc5)N4C(=O)C(NC(=O)C(C)NC)C3)c2)CCC2CCC(C(=O)NC(c3ccccc3)c3ccccc3)N2C1=O
Reply | 98.9

Ask | Return viability, T/C (reported value) for this molecule: NC(=O)C(=Cn1cnc(-c2cc(C(F)(F)F)cc(C(F)(F)F)c2)n1)c1cncnc1 + CNC(C)C(=O)NC1CN(S(=O)(=O)c2cccc(S(=O)(=O)N3CCC4CCC(C(=O)NC(c5ccccc5)c5ccccc5)N4C(=O)C(NC(=O)C(C)NC)C3)c2)CCC2CCC(C(=O)NC(c3ccccc3)c3ccccc3)N2C1=O
Reply | 106

---

Tested on: SYO-1 complex spheroid growth, percent test/control
Experiment: Anticancer human tumor SYO-1 cell line growth inhibition [Asc];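 also: compound exposure lasted 7 days after spheroids grew 3 days; 100% = DMSO vehicle control viability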
Conditions: second compound 0.0316 µM; first compound 0.3 µM; active compounds read low
Text: Multicellular complex tumor spheroid response to apoptosis pathway targeting inhibitors Alrizomadlin, Pelcitoclax, and Dasminapant in combination with a variety of drugs and investigational agents in selected tumor cell lines […] Compounds. […] If the clinical Cmax for an agent had not been determined, the highest concentration tested was 10 microM. […]
property.name: viability, T/C (%)
Field: numeric (%). Do not append units.

NC(=O)C(=Cn1cnc(-c2cc(C(F)(F)F)cc(C(F)(F)F)c2)n1)c1cncnc1 + CNC(C)C(=O)NC1CN(S(=O)(=O)c2cccc(S(=O)(=O)N3CCC4CCC(C(=O)NC(c5ccccc5)c5ccccc5)N4C(=O)C(NC(=O)C(C)NC)C3)c2)CCC2CCC(C(=O)NC(c3ccccc3)c3ccccc3)N2C1=O = 48.4

Ask | Return viability, T/C (reported value) for this compound: Cc1nc(N2CCC3(CC2)COC(C)C3N)c(CO)nc1Sc1ccnc(N)c1Cl (stereo not drawn) + Cc1c(S(C)(=O)=O)c(-c2cc(F)cc(N3CCN(c4ccc(NS(=O)(=O)c5ccc(NC(CCN6CCC(C(=O)OCCCP(=O)(O)O)CC6)CSc6ccccc6)c(S(=O)(=O)C(F)(F)F)c5)cc4)CC3)c2)c(-c2ccc(Cl)cc2)n1C(C)C
Reply | 98.8

Ask | Return viability, T/C (reported value) for this compound: CCN1C(C(=O)NC23CCC(C(=O)O)(CC2)CC3)C(c2cccc(Cl)c2F)C2(C(=O)Nc3cc(Cl)ccc32)C12CCCCC2 (stereo not drawn) + CNC(C)C(=O)NC1CN(S(=O)(=O)c2cccc(S(=O)(=O)N3CCC4CCC(C(=O)NC(c5ccccc5)c5ccccc5)N4C(=O)C(NC(=O)C(C)NC)C3)c2)CCC2CCC(C(=O)NC(c3ccccc3)c3ccccc3)N2C1=O
Reply | 9.46

---

System: SYO-1 complex spheroid growth, percent test/control
Experiment: Anticancer human tumor SYO-1 cell line growth inhibition [Asc];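 also: compound exposure lasted 7 days after spheroids grew 3 days; 100% = DMSO vehicle control viability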
Conditions: second compound 0.1 µM; first compound 0.316 µM; active compounds read low
Source text: Multicellular complex tumor spheroid response to apoptosis pathway targeting inhibitors Alrizomadlin, Pelcitoclax, and Dasminapant in combination with a variety of drugs and investigational agents in selected tumor cell lines […] Compounds. […] If the clinical Cmax for an agent had not been determined, the highest concentration tested was 10 microM. […]
property.name: viability, T/C (%)
Field: numeric (%). Do not append units.

Below, each entry is followed by its recorded viability, T/C result.
O=C(c1cc(Cc2n[nH]c(=O)c3ccccc23)ccc1F)N1CCN(C(=O)C2CC2)CC1 + CNC(C)C(=O)NC1CN(S(=O)(=O)c2cccc(S(=O)(=O)N3CCC4CCC(C(=O)NC(c5ccccc5)c5ccccc5)N4C(=O)C(NC(=O)C(C)NC)C3)c2)CCC2CCC(C(=O)NC(c3ccccc3)c3ccccc3)N2C1=O = 103
CCN1CCN(Cc2ccc(Nc3ncc(F)c(-c4cc(F)c5nc(C)n(C(C)C)c5c4)n3)nc2)CC1 + CNC(C)C(=O)NC1CN(S(=O)(=O)c2cccc(S(=O)(=O)N3CCC4CCC(C(=O)NC(c5ccccc5)c5ccccc5)N4C(=O)C(NC(=O)C(C)NC)C3)c2)CCC2CCC(C(=O)NC(c3ccccc3)c3ccccc3)N2C1=O = 105
O=C(c1cc(Cc2n[nH]c(=O)c3ccccc23)ccc1F)N1CCN(C(=O)C2CC2)CC1 + Cc1c(S(C)(=O)=O)c(-c2cc(F)cc(N3CCN(c4ccc(NS(=O)(=O)c5ccc(NC(CCN6CCC(C(=O)OCCCP(=O)(O)O)CC6)CSc6ccccc6)c(S(=O)(=O)C(F)(F)F)c5)cc4)CC3)c2)c(-c2ccc(Cl)cc2)n1C(C)C = 89.7
CNC(C)C(=O)NC1CN(S(=O)(=O)c2cccc(S(=O)(=O)N3CCC4CCC(C(=O)NC(c5ccccc5)c5ccccc5)N4C(=O)C(NC(=O)C(C)NC)C3)c2)CCC2CCC(C(=O)NC(c3ccccc3)c3ccccc3)N2C1=O (stereo unspecified) + Cc1c(S(C)(=O)=O)c(-c2cc(F)cc(N3CCN(c4ccc(NS(=O)(=O)c5ccc(NC(CCN6CCC(C(=O)OCCCP(=O)(O)O)CC6)CSc6ccccc6)c(S(=O)(=O)C(F)(F)F)c5)cc4)CC3)c2)c(-c2ccc(Cl)cc2)n1C(C)C = 95.7
C#Cc1c(F)ccc2cc(O)cc(-c3ncc4c(N5CC6CCC(C5)N6)nc(OCC56CCCN5CC(F)C6)nc4c3F)c12 (stereo unspecified) + CNC(C)C(=O)NC1CN(S(=O)(=O)c2cccc(S(=O)(=O)N3CCC4CCC(C(=O)NC(c5ccccc5)c5ccccc5)N4C(=O)C(NC(=O)C(C)NC)C3)c2)CCC2CCC(C(=O)NC(c3ccccc3)c3ccccc3)N2C1=O = 105

Next molecule, viability, T/C to be filled in.
Ask | State recorded viability, T/C with SYO-1 complex spheroid growth, percent test/control, entry COc1c(OCCCN2CCOCC2)ccc2c3n(c(=NC(=O)c4cnc(N)nc4)nc12)CCN3 + Cc1c(S(C)(=O)=O)c(-c2cc(F)cc(N3CCN(c4ccc(NS(=O)(=O)c5ccc(NC(CCN6CCC(C(=O)OCCCP(=O)(O)O)CC6)CSc6ccccc6)c(S(=O)(=O)C(F)(F)F)c5)cc4)CC3)c2)c(-c2ccc(Cl)cc2)n1C(C)C , no comment.
Reply | 69.5

---

tested on: SYO-1 complex spheroid growth, percent test/control; assay: Anticancer human tumor SYO-1 cell line growth inhibition [Asc]; conditions: second compound 0.01 µM; first compound 0.316 µM; active compounds read low;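 also: compound exposure lasted 7 days after spheroids grew 3 days; 100% = DMSO vehicle control viability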
property.name: viability, T/C (%)
Field: numeric (%). Do not append units.

O=C(c1ccc(F)c(F)c1Nc1ccc(I)cc1F)N1CC(O)([C@@H]2CCCCN2)C1 + CNC(C)C(=O)NC1CN(S(=O)(=O)c2cccc(S(=O)(=O)N3CCC4CCC(C(=O)NC(c5ccccc5)c5ccccc5)N4C(=O)C(NC(=O)C(C)NC)C3)c2)CCC2CCC(C(=O)NC(c3ccccc3)c3ccccc3)N2C1=O = 97.6
C#Cc1c(F)ccc2cc(O)cc(-c3ncc4c(N5CC6CCC(C5)N6)nc(OCC56CCCN5CC(F)C6)nc4c3F)c12 (centres undefined) + CNC(C)C(=O)NC1CN(S(=O)(=O)c2cccc(S(=O)(=O)N3CCC4CCC(C(=O)NC(c5ccccc5)c5ccccc5)N4C(=O)C(NC(=O)C(C)NC)C3)c2)CCC2CCC(C(=O)NC(c3ccccc3)c3ccccc3)N2C1=O = 102
COc1c(OCCCN2CCOCC2)ccc2c3n(c(=NC(=O)c4cnc(N)nc4)nc12)CCN3 + CNC(C)C(=O)NC1CN(S(=O)(=O)c2cccc(S(=O)(=O)N3CCC4CCC(C(=O)NC(c5ccccc5)c5ccccc5)N4C(=O)C(NC(=O)C(C)NC)C3)c2)CCC2CCC(C(=O)NC(c3ccccc3)c3ccccc3)N2C1=O = 96

Next molecule, viability, T/C to be filled in.
Ask | Return viability, T/C (reported value) for this molecule: CCN1CCN(Cc2ccc(Nc3ncc(F)c(-c4cc(F)c5nc(C)n(C(C)C)c5c4)n3)nc2)CC1 + CNC(C)C(=O)NC1CN(S(=O)(=O)c2cccc(S(=O)(=O)N3CCC4CCC(C(=O)NC(c5ccccc5)c5ccccc5)N4C(=O)C(NC(=O)C(C)NC)C3)c2)CCC2CCC(C(=O)NC(c3ccccc3)c3ccccc3)N2C1=O
Reply | 109
